test system: HCT-15 colon; assay: NCI-60 one-dose screen, 48 h (100 = growth as untreated, 0 = no growth, -100 = all killed); conditions: 10 µM unless noted
This is part of a sample that, as a whole, favours compounds with a hit. Of some 83,000 tested, about 20% had one in any assay. Activity calls are given as the source filed them. How the source made its calls: active means growth percent below 10; inactive means the rest.
OBSERVATION TYPE: growth

Nc1cc(Cl)cc2cccnc12 :: 103% (inactive)
CCN(CC)c1cc(N)c(Cc2c(N)cc(N(CC)CC)cc2Cl)c(Cl)c1 :: 91.7% (inactive)
O=[N+]([O-])c1cc(CCl)ccc1OCCBr :: 91.1% (inactive)
C[C@]12CCc3nc(Nc4ccccc4)sc3C1=CC[C@@H]1[C@@H]2CC[C@]2(C)/C(=N/NC(N)=S)CC[C@@H]12 :: -11.6% (active)
C[C@H]1[C@H](C)CC[C@]2(COC(=O)CCC(=O)O)CC[C@]3(C)C(=CC[C@@H]4[C@@]5(C)CCCNC(C)(C)[C@@H]5CC[C@]43C)[C@H]12 :: 65.9% [100 µM] (inactive)

Look up and report measured growth (HCT-15 colon) for the following molecule: CCCC(NC(=O)OCc1ccccc1)C(=O)O (stereo not drawn)
103% (inactive)

Look up and report measured growth (HCT-15 colon) for the following molecule: CC[C@@](C)(NC(=O)[C@H](C)NC(=O)CCNC(=O)C(C)(C)NC(=O)[C@H](C)NC(=O)[C@@H]1CCCN1C(=O)[C@@](C)(CC)NC(=O)[C@H](Cc1ccccc1)NC(=O)C1CCCN1C(=O)C(C)(C)NC(=O)C1CCCN1C(=O)C(C)(C)NC(C)=O)C(=O)NCCC(=O)N[C@@H](CC(C)C)C(=O)NC(C)(C)C(=O)NCCC(=O)N[C@@H](CC(C)C)C(=O)NC(C)(C)C(=O)NC(C)(C)C(=O)N[C@@H](CC(C)C)C(=O)NCCC(=O)NCO (stereo partly drawn)
-99.4% (active)

Look up and report measured growth (HCT-15 colon) for the following molecule: O=C(N/N=C/c1c(Cl)cccc1Cl)c1cccc(Nc2ccnc(C(F)(F)F)c2)c1
78.5% (inactive)

---

test system: NCI-H460 lung; assay: NCI-60 one-dose screen, 48 h; details: 10 µM unless noted
The panel holds about 83,000 compounds, 20% with a hit somewhere; the sample as a whole holds those more often. The source made the active and inactive calls. Rule for the calls: active = growth percent below 10; inactive = the rest.
Output constraint: value belongs to active, inactive

COc1cc(NCc2cn(-c3ccc(C(=O)O)cc3)nc2-c2ccc(C(=O)O)cc2)cc(OC)c1OC :: inactive
NC1=NC(=O)NC1(c1ccccc1)c1ccccc1 :: inactive
O=C(Nc1ccc(C(=O)/C=C/c2ccc(N3CCOCC3)cc2)cc1)Nc1ccc([N+](=O)[O-])cc1 :: inactive

Kindly provide the recorded test outcome for the following molecule: c1ccc(-c2nnc(-c3c[nH]c4ncccc34)s2)cc1
inactive

Kindly provide the recorded test outcome for the following molecule: Nc1nc(N)c2c(n1)NC(c1ccc(F)cc1)C1CCc3ccccc3C1=N2 (stereo unspecified)
inactive

Kindly provide the recorded test outcome for the following molecule: COc1ccc2[nH]c(C(=O)N3CCN(C(=O)OCc4ccc5c(Br)cc(Br)c(O)c5n4)CC3)cc2c1
active

---

// reported growth per item
test system: ACHN renal; test: NCI-60 one-dose screen, 48 h (100 = growth as untreated, 0 = no growth, -100 = all killed); conditions: 10 µM unless noted
About 83,000 compounds went through this panel and 20% of them were active in at least one assay; those are over-represented in the sample as a whole. Activity calls are given as the source filed them. Rule for the calls: active = growth percent below 10; inactive = the rest.

As a guide, the following entries are already answered.
C=C(C)[C@@H]1CC[C@]2(C(=O)NCCNCCNCCN)CC[C@]3(C)[C@H](CC[C@@H]4[C@@]5(C)CCC(=O)C(C)(C)[C@@H]5CC[C@]43C)[C@@H]12 :: -83.3% [100 µM] (active)
C=CCc1nc2ccccc2s1 :: 101% (inactive)
CCCCCCCCCCCCNC(=S)N/N=C/c1ccccc1O :: 77.1% (inactive)

Write down growth measured for item O=C(CSc1nc2ccc([N+](=O)[O-])cc2[nH]1)Nc1ccc(F)c(Cl)c1
16.9% (inactive)

Write down growth measured for item C=C(C)[C@@H]1CC[C@]2(C)[C@H](C(=O)C=C3[C@@H]4C[C@](C)(C(=O)N5CCN(C)CC5)CC[C@]4(C)CC[C@]32C)[C@@]1(C)CCC#N
-93.7% [100 µM] (active)

Write down growth measured for item CCOC(=O)c1cc(C(=O)c2ccc(OC)c(OC)c2)n2ccc(-c3ccccn3)cc12
30% (inactive)
